- Test system: HEK-293T
- ASSAY_NOTES: Multiplex assay against HEK293T
- Format: toxicity, cell-based
- CONDITIONS: human, 48 h, 10 µM, compound concentration 10 uM, replicate 1
Each record here notes measured Population Mitotic Cells (%).

Answered examples (3):
Cc1c[nH]c2nccc(Oc3c(F)cc(Nc4cc(Cl)nc(N)n4)cc3F)c12 = 39%
CC(C)(C)NC[C@H](O)COc1nsnc1N1CCOCC1 = 57%
Cc1ccccc1C(c1ccccc1C)N1C2CCC1CC(O)(c1ccccc1)C2 (centres undefined) = 49%

Here is the next item to consider.
Item "CCCSc1nc(N[C@@H]2C[C@H]2c2ccc(F)c(F)c2)c2nnn([C@@H]3C[C@H](OCCO)[C@@H](O)[C@H]3O)c2n1" has what recorded Population Mitotic Cells (%)?
18%

----------
- Tested on: U2OS
- ASSAY_NOTES: Multiplex assay against U2OS
- Assay type: toxicity, cell-based
- CONDITIONS: human, 48 h, 1 µM, compound concentration 1 uM, replicate 2
ENDPOINT_LABEL: Population Membrane Permeable-Phenotype (%)
The figure you give is taken to be in %; do not add the unit.

Answered examples (6):
CC1=C(C(=O)Nc2cc3cn[nH]c3cc2F)C(c2ccc(C(F)(F)F)cc2)CC(=O)N1 (stereo not drawn) = 6
CC(C)(C)NC[C@H](O)COc1nsnc1N1CCOCC1 [TIMOLOL] = 13
COc1ccccc1CN[C@H]1C2CCN(CC2)[C@H]1C(c1ccccc1)c1ccccc1 [CP-96345] = 4
COC(=O)C1=C(C)NC(C)=C(C(=O)OCCCN2CCC(c3ccccc3)(c3ccccc3)CC2)[C@H]1c1cccc([N+](=O)[O-])c1 [NIGULDIPINE] = 92
CCc1ccc(OCc2ccccc2C(=O)Nc2ccc3nc(C)cc(N)c3c2)cc1.Cl = 71
COc1cc2ncn(-c3cc(OCc4ccccc4C(F)(F)F)c(C(N)=O)s3)c2cc1OC [GW843682X] = 27

Item "CC(C)NC(=O)N1CC[C@H](NC2=Nc3cc(F)ccc3N(CC(F)F)c3ccc(Cl)cc32)C1" has what recorded Population Membrane Permeable-Phenotype (%)?
10

Item CCCSc1nc(N[C@@H]2C[C@H]2c2ccc(F)c(F)c2)c2nnn([C@@H]3C[C@H](OCCO)[C@@H](O)[C@H]3O)c2n1 [TICAGRELOR] has what recorded Population Membrane Permeable-Phenotype (%)?
2

----------
Each record here notes measured Growth Rate.
- Test system: U2OS
- ASSAY_NOTES: Incucyte cell viability with U2OS; further: filed as whole numbers so only -1 and 0 and 1 occur
- Type: toxicity, cell-based
- CONDITIONS: human, 6 h, 10 µM, compound concentration 10 uM, replicate number 2, timepoint 6 hours

Answered examples (10):
O=C(c1cc2c(cc1F)OC(c1ccc(F)cc1)(c1ccc(Cl)cc1Cl)O2)N1CCOCC1 (centres undefined) = 1
C[C@]1(C(=O)N(CCCC(=O)O)Cc2cccc(Cl)c2)CCN1C(=O)c1csc2ccccc12 [GLPG-0974] = 1
O=C(NCC(=O)N1CCCC1)Nc1ccc2cnccc2c1 = 0
COc1ccc(S(=O)(=O)N2c3ccc(Cl)cc3[C@](O)(c3ccccc3Cl)[C@@H]2C(=O)N2CCC[C@H]2C(N)=O)cc1OC [RELCOVAPTAN] = 0
O=C(O)Cn1c(C(=O)Nc2nc(-c3ccccc3Cl)cs2)cc2ccccc21 = 0
CCNC(=O)c1cc2c(N3CCOC[C@@H]3C)ccnc2n1C = 0
CNC(=O)c1ccc(Nc2ncc(C(F)(F)F)c(NCc3nccnc3N(C)S(C)(=O)=O)n2)cc1 [DEFACTINIB] = 0
C[C@H](N)COC(=O)[C@@H](CCCCN)NC(=O)Cc1c(-c2ccc3ccccc3c2)[nH]c2c1ccc1ccccc12 = 0
Cc1cc([C@@H](C)Nc2ccccc2C(=O)O)c2nc(N3CCOCC3)cc(=O)n2c1 [AZD-6482] = 1
CC(C)(C)NC[C@H](O)COc1nsnc1N1CCOCC1 [TIMOLOL] = 1

Notebook: pull reported Growth Rate for U2OS, entry Cc1cc(-n2nc(Cc3cc(F)cc(C(F)(F)F)c3)nc2C)ccc1C(N)=O [TP-024]
1

Notebook: pull reported Growth Rate for U2OS, entry "CC1CCN(CC[C@H]2CCCN2S(=O)(=O)c2cccc(O)c2)CC1.Cl"
1

Notebook: pull reported Growth Rate for U2OS, entry CC(C)(O)c1ccccc1CC[C@@H](SCC1(CC(=O)[O-])CC1)c1cccc(/C=C/c2ccc3ccc(Cl)cc3n2)c1.[Na+] [MONTELUKAST SODIUM]
0

Notebook: pull reported Growth Rate for U2OS, entry COCCOc1nc(-c2ccc(Cl)nc2)nc2c1CN(C(=O)c1ncn3ccccc13)CC2 [THPP-1]
1

Notebook: pull reported Growth Rate for U2OS, entry Cc1cccc(CN2CCN(C(c3ccccc3)c3ccc(Cl)cc3)CC2)c1.Cl.Cl (centres undefined)
0
